Here's what we have: Kd numbers for Heat shock protein HSP 90-alpha (Homo sapiens).
Give a bare numeral; the unit µM is implied.

INSERT INTO assay_data (compound_string, unit_of_measurement, readout_value) VALUES
  ('COC(=O)c1c(O)cc(O)c(Cl)c1CCc1nccn1Cc1ccoc1', 'µM', 3.77),
  ('C#Cc1ccc(Cn2ccnc2CCc2c(Cl)c(O)cc(O)c2C(=O)OC)cc1', 'µM', 15.8),
  ('COC(=O)c1c(O)cc(O)c(Cl)c1CCc1nccn1Cc1ccno1', 'µM', 0.81),
  ('COC(=O)c1c(O)cc(O)c(Cl)c1CCc1nccn1Cc1cncnc1', 'µM', 9.92);

# ---- query molecule ----
The molecule CCc1ccsc1Cn1ccnc1CCc1c(Cl)c(O)cc(O)c1C(=O)OC on Heat shock protein HSP 90-alpha (Homo sapiens): Kd was 6.94

====

Here's what we have: Kd numbers for Heat shock protein HSP 90-alpha (Homo sapiens, UniProt P07900).
Give a bare numeral; the unit µM is implied.

INSERT INTO assay_data (compound_string, test_system, unit_of_measurement, readout_value) VALUES
  ('COC(=O)c1c(O)cc(O)c(Cl)c1CCc1nccn1Cc1cccc(F)c1', 'Heat shock protein HSP 90-alpha (Homo sapiens, UniProt P07900)', 'µM', 9.63),
  ('COC(=O)c1c(O)cc(O)c(Cl)c1CCc1nccn1Cc1ccc(Cl)s1', 'Heat shock protein HSP 90-alpha (Homo sapiens, UniProt P07900)', 'µM', 34.7),
  ('CCOc1ccccc1Cn1ccnc1CCc1c(Cl)c(O)cc(O)c1C(=O)OC', 'Heat shock protein HSP 90-alpha (Homo sapiens, UniProt P07900)', 'µM', 8.1);

# ---- query compound ----
Memo: COC(=O)c1c(O)cc(O)c(Cl)c1CCc1nccn1Cc1oc(C)cc1C , reported Kd: 9.2

====

Here's what we have: Kd numbers for Endoplasmin (Homo sapiens).
Give a bare numeral; the unit µM is implied.

Worked examples follow.
INSERT INTO results (compound_string, unit_of_measurement, readout_value) VALUES
  ('COC(=O)c1c(O)cc(O)c(Cl)c1CCc1nccn1Cc1cncnc1', 'µM', 9.18),
  ('C#Cc1ccc(Cn2ccnc2CCc2c(Cl)c(O)cc(O)c2C(=O)OC)cc1', 'µM', 1.4),
  ('COC(=O)c1c(O)cc(O)c(Cl)c1CCc1nccn1Cc1ccccc1Cl', 'µM', 1.39),
  ('COC(=O)c1c(O)cc(O)c(Cl)c1CCc1nccn1Cc1cc(Cl)cs1', 'µM', 0.67);

# ---- query compound ----
The compound COC(=O)c1c(O)cc(O)c(Cl)c1CCc1nccn1Cc1ccccc1C on Endoplasmin (Homo sapiens): Kd was 3

====

Here's what we have: Kd numbers for Endoplasmin (Homo sapiens, UniProt P14625).

INSERT INTO assay_data (compound_string, measurement_name, readout_value) VALUES
  ('COC(=O)c1c(O)cc(O)c(Cl)c1CCc1nccn1Cc1cccc(F)c1', 'Kd', '1530 nM');

Memo: COC(=O)c1c(O)cc(O)c(Cl)c1CCc1nccn1Cc1ccc(OC)cc1 , reported Kd: 6900 nM

Memo: CCOc1ccccc1Cn1ccnc1CCc1c(Cl)c(O)cc(O)c1C(=O)OC , reported Kd: 200 nM

Memo: COC(=O)c1c(O)cc(O)c(Cl)c1CCc1nccn1Cc1ccno1 , reported Kd: 400 nM

====

Molecular target: UniProt P07900
pKd: −log10 of the molar value.
So basically: pKd at 5 or higher? That is true (1). Lower than 5? That is false (0).

Solved cases (4 shown):
INSERT INTO results (compound_string, test_system, class) VALUES
  ('COC(=O)c1c(O)cc(O)c(Cl)c1CCc1nccn1Cc1ccccc1C', 'UniProt P07900', 'false (0)'),
  ('CCc1ccccc1Cn1ccnc1CCc1c(Cl)c(O)cc(O)c1C(=O)OC', 'UniProt P07900', 'false (0)'),
  ('COC(=O)c1c(O)cc(O)c(Cl)c1CCc1nccn1Cc1ccc(C)s1', 'UniProt P07900', 'true (1)'),
  ('COC(=O)c1c(O)cc(O)c(Cl)c1CCc1nccn1Cc1ccccc1OC', 'UniProt P07900', 'false (0)');

Now turn to the next molecule.
Prompt: Could you please find out whether COC(=O)c1c(O)cc(O)c(Cl)c1CCc1nccn1Cc1cccs1 has pKd that meets 5 or exceeds it?
Response: true (1)

====

Here's what we have: Kd numbers for Endoplasmin (Homo sapiens).
Give a bare numeral; the unit nM is implied.

INSERT INTO measurements (compound_string, measurement_name, readout_value) VALUES
  ('COC(=O)c1c(O)cc(O)c(Cl)c1CCc1nccn1Cc1ccc(C)cc1', 'Kd', 730),
  ('COC(=O)c1c(O)cc(O)c(Cl)c1CCc1nccn1Cc1ccccc1C(F)(F)F', 'Kd', 1530),
  ('COC(=O)c1c(O)cc(O)c(Cl)c1CCc1nccn1Cc1ccc(C#N)cc1', 'Kd', 4700),
  ('COC(=O)c1c(O)cc(O)c(Cl)c1CCc1nccn1Cc1ccc(C)s1', 'Kd', 680),
  ('COC(=O)c1c(O)cc(O)c(Cl)c1CCc1nccn1Cc1ccc(Cl)s1', 'Kd', 930);

The molecule CCc1ccsc1Cn1ccnc1CCc1c(Cl)c(O)cc(O)c1C(=O)OC on Endoplasmin (Homo sapiens): Kd was 720

The molecule COC(=O)c1c(O)cc(O)c(Cl)c1CCc1nccn1Cc1ccoc1 on Endoplasmin (Homo sapiens): Kd was 1500

The molecule COC(=O)c1c(O)cc(O)c(Cl)c1CCc1nccn1Cc1ccc(C)cc1OC on Endoplasmin (Homo sapiens): Kd was 2350

The molecule CCc1ccccc1Cn1ccnc1CCc1c(Cl)c(O)cc(O)c1C(=O)OC on Endoplasmin (Homo sapiens): Kd was 810

The molecule COC(=O)c1c(O)cc(O)c(Cl)c1CCc1nccn1Cc1sccc1Cl on Endoplasmin (Homo sapiens): Kd was 760

The molecule C=Cc1ccsc1Cn1ccnc1CCc1c(Cl)c(O)cc(O)c1C(=O)OC on Endoplasmin (Homo sapiens): Kd was 750

The molecule COC(=O)c1c(O)cc(O)c(Cl)c1CCc1nccn1Cc1ccccc1F on Endoplasmin (Homo sapiens): Kd was 1360

====

Here's what we have: pKd numbers for Endoplasmin (Homo sapiens, UniProt P14625).
In textbook form, pKd equals minus log to base ten of the concentration in mol/L.

Worked examples follow.
INSERT INTO assay_data (compound_string, readout_value) VALUES
  ('COC(=O)c1c(O)cc(O)c(Cl)c1CCc1nccn1Cc1ccccn1', 5.31),
  ('COC(=O)c1c(O)cc(O)c(Cl)c1CCc1nccn1Cc1ccc(F)cc1', 5.49);

Memo: COC(=O)c1c(O)cc(O)c(Cl)c1CCc1nccn1Cc1cccnc1 , reported pKd: 5.39
